Sourced from PubChem BioAssay AID1942

EXPERIMENTAL TARGET: Potassium voltage-gated channel subfamily KQT member 2 (Rattus norvegicus)
ASSAY REMARKS: KCNQ2 potentiation in CHO cells – cell-based, FluxOR thallium flux, counter-screen for hERG block protector project, confirmation (AID 1942);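 note: normalized value minus buffer-control mean plus three SD of buffer wells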
CONDITION: FluxOR thallium flux fluorescence, at 10 µM
In all, about 2,400 compounds went through this assay and about 580 (24%) were called active.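 Rule for the calls: active = activity change at or above the mean plus 3 SD of buffer wells without dofetilide, per plate; inactive = the rest.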 Only a sample is shown.
Outcomes: active, inactive

| COMPOUND | CLASSIFICATION |
| --- | --- |
| COc1ccccc1NC(=S)N1CCCc2ccccc21 | inactive |
| O=[N+]([O-])c1cccnc1Sc1n[nH]c(-c2ccc(Cl)cc2)n1 | inactive |
| CCCCNC(=O)COC(=O)c1ccc(NC(C)=O)cc1 | inactive |
| CCNC(=O)C/C(C)=N/NC(=O)C(=O)Nc1ccc(CC)cc1 | active |
| O=C(NC(=S)Nc1ccccc1N1CCCC1)c1ccc([N+](=O)[O-])cc1 | inactive |
| CCc1c(C)sc(NC(=O)CN2CCN(C(=O)c3ccco3)CC2)c1C(=O)OC | active |
| Cc1cc(C)c(S(=O)(=O)NCc2ccccn2)c(C)c1 | inactive |
| CCC(NS(=O)(=O)c1ccc(OC)cc1)C(=O)O (configuration not stated) | inactive |
| O=C(COc1ccc(Br)cc1Br)NC(=S)N1CCCc2ccccc21 | inactive |
| Cc1cc(C)n(-c2nc3sc4c(c3c(=O)[nH]2)CCCC4)n1 | active |
| O=C(O)Cc1sc(-c2ccc(Cl)cc2)nc1-c1ccccc1 | inactive |
| Cc1c(-c2ccn[nH]2)cc(NC(=O)c2ccc(Cl)cc2)c(=O)n1N | inactive |
| CCCOC(=O)CN1C(=O)c2ccc(C(=O)OCCC)cc2C1=O | inactive |
| Cc1sc2nc[nH]c(=S)c2c1-c1ccccc1 | active |
| Cc1ccc(N=Nc2ccc(O)c3ncccc23)cc1 | inactive |
| O=[N+]([O-])c1cc(F)c2cccnc2c1O | active |
| C=CCN1C(=O)C(Cc2ccc(OCC)cc2)SC1=Nc1ccc(C(=O)O)cc1 (configuration not stated) | inactive |
| CN(C)CCNc1ncnc2c1sc1nc(N3CCCC3)c3c(c12)CC(C)(C)OC3 | inactive |
| O=[N+]([O-])c1ccc(O)c2ncccc12 | active |
| O=C(COc1ccc2c3c(c(=O)oc2c1)CCC3)N[C@@H](Cc1ccccc1)C(=O)O | active |
| O=C(O)/C=C/c1cn(-c2ccccc2)nc1-c1ccc(-c2ccc([N+](=O)[O-])cc2)o1 | inactive |
| C/C(=N\N1CCN(C2c3ccccc3-c3ccccc32)CC1)c1ccncc1 | inactive |
| Cn1c(=S)[nH]c2scc(-c3cccs3)c2c1=O | active |
| COc1ccc(N2C(=O)CCC(C(=O)O)C2c2ccc(F)cc2)cc1 (configuration not stated) | inactive |
| C=CCOc1ccccc1/C=c1\sc2nc(=O)c(C)nn2c1=O | inactive |
| CCOc1ccc(OCC(=O)OCC(=O)N2CCN(C(=O)c3ccco3)CC2)cc1 | inactive |
| CCC(=O)N1CCCc2ccccc21 | inactive |
| O=C(O)CCCCn1c(SCc2ccccc2Cl)nc2ccsc2c1=O | inactive |
| CCCCOC(=O)Cn1c2ccc(OC)cc2c2nc3ccccc3nc21 | inactive |
| C=CCn1c(SCc2ccc(C(=O)O)cc2)nc2sc(C)c(C)c2c1=O | active |
| COc1ccc(S(=O)(=O)Nc2cccnc2)cc1 | inactive |
| COc1ccc(-n2c(SCC#N)nnc2-c2cccnc2)cc1 | inactive |
| O=C(COc1ccc(Cl)cc1Cl)NC(=S)Nc1ccccc1C(=O)O | inactive |
| CCCN(CC(=O)Nc1ccccc1C)C(=O)CCl | inactive |
| N#Cc1ccccc1OCCN1C(=O)c2ccccc2C1=O | inactive |
| Cc1c(-c2ccccc2)sc2nc[nH]c(=S)c12 | active |
| Cc1[nH]c(=S)sc1Cc1ccc(Cl)c(Cl)c1 | inactive |
| Clc1ccc(Cc2ccccc2)nn1 | inactive |
| Oc1c(Cl)cc(CN2CCCCC2)c2cccnc12 | inactive |
| Oc1c(N=Nc2ccccn2)ccc2ccccc12 | active |
| Oc1ccc(N=Nc2ccc3c(c2)OCCO3)c2ncccc12 | inactive |
| CCOC(=O)c1c(NC(=O)CN2CCN(C(=O)c3ccco3)CC2)sc2c1CCCC2 | active |
| CC(C)OC(=O)c1c(NC(=O)c2ccco2)sc2c1CCCCC2 | inactive |
| Cc1c(C)c2ccc(OCC(=O)N[C@@H](Cc3ccccc3)C(=O)O)cc2oc1=O | inactive |
| Cc1ccc(NC(=O)COc2cccnc2[N+](=O)[O-])cc1S(=O)(=O)N1CCOCC1 | inactive |
| Cc1ccc(Cc2c[nH]c(=S)s2)cc1 | active |
| Cc1cc(Cl)ccc1OC(C)C(=O)NCCc1ccc2c(c1)OCCO2 (configuration not stated) | inactive |

----------
EXPERIMENTAL TARGET: Potassium voltage-gated channel subfamily KQT member 2 (Rattus norvegicus) (UniProt O88943)
Sequence (O88943 whole entry, looked up): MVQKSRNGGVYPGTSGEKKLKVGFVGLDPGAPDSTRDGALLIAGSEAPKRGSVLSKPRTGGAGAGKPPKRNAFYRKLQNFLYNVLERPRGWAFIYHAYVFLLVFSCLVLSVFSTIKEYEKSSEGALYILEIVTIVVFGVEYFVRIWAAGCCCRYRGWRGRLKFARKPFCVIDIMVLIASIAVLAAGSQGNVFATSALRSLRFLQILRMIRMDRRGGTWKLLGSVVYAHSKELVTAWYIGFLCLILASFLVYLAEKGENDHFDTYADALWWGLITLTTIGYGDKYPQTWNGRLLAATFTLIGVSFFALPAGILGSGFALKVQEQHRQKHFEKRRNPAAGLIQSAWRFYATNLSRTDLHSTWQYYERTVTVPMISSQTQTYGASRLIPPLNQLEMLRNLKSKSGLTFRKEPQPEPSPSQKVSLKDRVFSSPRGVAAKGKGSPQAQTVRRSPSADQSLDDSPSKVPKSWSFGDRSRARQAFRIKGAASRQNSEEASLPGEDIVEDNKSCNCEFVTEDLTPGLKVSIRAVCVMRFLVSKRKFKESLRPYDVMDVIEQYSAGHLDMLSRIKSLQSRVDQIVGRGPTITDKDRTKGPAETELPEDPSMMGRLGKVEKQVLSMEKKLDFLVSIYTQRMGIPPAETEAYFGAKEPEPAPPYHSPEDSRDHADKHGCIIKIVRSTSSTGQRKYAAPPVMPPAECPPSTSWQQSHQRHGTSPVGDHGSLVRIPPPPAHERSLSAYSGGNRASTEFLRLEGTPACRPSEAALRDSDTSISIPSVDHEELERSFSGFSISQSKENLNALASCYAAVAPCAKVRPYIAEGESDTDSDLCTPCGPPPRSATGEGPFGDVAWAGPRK
ASSAY REMARKS: KCNQ2 potentiation in CHO cells – cell-based, FluxOR thallium flux, counter-screen for hERG block protector project, confirmation (AID 1942);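 note: normalized value minus buffer-control mean plus three SD of buffer wells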
CONDITION: FluxOR thallium flux fluorescence, at 10 µM, active compounds read high
In all, about 2,400 compounds went through this assay and about 580 (24%) were called active. Not all results are given here.
Rule: activity change, less the hit threshold of -10% or more gives label 1; anything lower gives label 0.

| COMPOUND | CLASSIFICATION |
| --- | --- |
| COc1cccc(-n2nc(C(=O)O)c3ccccc3c2=O)c1 | label 1 |
| Cc1ccccc1OCC(=O)NNC(=O)c1ccc2c(=O)n3c(nc2c1)CCC3 | label 0 |
| CSc1ccc(CNc2nc3ccccc3n3cnnc23)cc1 | label 0 |
| CC(C)(C)c1ccc(C(=O)NC(=S)N2CCCC2)cc1 | label 1 |
| Nn1c(SCC(=O)Nc2ccc(OC(F)F)cc2)nnc1-c1ccco1 | label 0 |
| CC(=O)Nc1ccccc1C(=O)C(=O)Nc1ccc(Cl)cc1 | label 0 |
| CCC(=O)N1c2ccc(C)cc2C2=NNC(=S)NC21O (centres undefined) | label 0 |
| Cc1cc(F)ccc1NC(=O)C1CCN(C(=O)Nc2ccccc2)CC1 | label 0 |
| O=C(CSc1nnc(NC(=O)c2ccc(S(=O)(=O)N3CCOCC3)cc2)s1)Nc1ccccc1C(F)(F)F | label 0 |
| CC(=O)c1cccc(NC(=O)NCc2cccs2)c1 | label 0 |
| COc1cc(C(=O)NCc2ccc(-c3nc4ccccc4o3)cc2)cc(OC)c1OC | label 0 |
| CCN(/N=C/c1ccc(Cl)cc1)c1cc(=O)n(C)c(=O)[nH]1 | label 0 |
| COc1ccc(C(=O)Nc2ccccc2C(=O)O)cc1Cl | label 1 |
| COc1ccc(Cl)cc1C(=O)Nc1cccnc1Cl | label 0 |
| CN1CCN(C(=S)NC(=O)c2ccc(C(C)(C)C)cc2)CC1 | label 0 |
| c1ccc(CCCNc2ncnc3nc[nH]c23)cc1 | label 1 |
| Cn1ncc2c(NNC(=O)c3ccc(O)cc3)ncnc21 | label 0 |
| N#C/C(=N\Nc1ccccc1F)c1nc(-c2ccccc2)cs1 | label 0 |
| COc1ccccc1C(=O)NNC(=O)C(=O)Nc1cccc(Cl)c1C | label 1 |
| COc1cccc(OC)c1OCCOCCN1CCN(C)CC1 | label 0 |
| O=c1oc2ccccc2c2c1nc(C(F)(F)F)n2-c1ccccc1 | label 0 |
| Cc1ccccc1C(=O)NNC(=O)C(=O)Nc1cccc(Cl)c1C | label 1 |
| Cc1ccc(NC(=O)CSc2nnc(C3CC3)n2CC2CCCO2)c(C)c1 (centres undefined) | label 0 |

----------
EXPERIMENTAL TARGET: Potassium voltage-gated channel subfamily KQT member 2 (Rattus norvegicus) (UniProt O88943)
ASSAY REMARKS: KCNQ2 potentiation in CHO cells – cell-based, FluxOR thallium flux, counter-screen for hERG block protector project, confirmation (AID 1942);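 note: normalized value minus buffer-control mean plus three SD of buffer wells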
CONDITION: FluxOR thallium flux fluorescence, at 10 µM, active compounds read high
Among all 2,400 compounds or so, about 580 (24%) were called active. The list is a sample of the results.
The threshold is inclusive: activity change, less the hit threshold of exactly -10% counts as Condition met; values below receive Condition not met.

| MOLECULE | CLASSIFICATION |
| --- | --- |
| COCCn1c(SCC(=O)Nc2cc(C)cc(C)c2)nc2ccccc2c1=O | Condition not met |
| O=C(NC(=S)N1CCc2ccccc21)c1ccc(Br)o1 | Condition met |
| O=C(NC(=S)NC1CCCc2ccccc21)c1ccco1 (stereo unspecified) | Condition met |
| Clc1cccc(OCCCN2CCCC2)c1Cl | Condition met |
| Cn1nnnc1SCC(=O)NC1CCCc2ccccc21 (stereo unspecified) | Condition not met |
| O=C1NCC(=O)N2C(c3ccccc3)c3[nH]c4ccccc4c3C[C@@H]12 (stereo partly specified) | Condition not met |
| COC(=O)c1ccc(C2C(C#N)=C(N)Oc3cc(O)ccc32)cc1 (stereo unspecified) | Condition met |
| CCOc1ccc(NC(=O)C2C(C(=O)O)C3(Cl)C(Cl)=C(Cl)C2(Cl)C3(Cl)Cl)cc1 (stereo unspecified) | Condition not met |
| Cc1cc(-c2nnc(SCC(=O)Nc3ccc(C(F)(F)F)cc3)n2C)no1 | Condition not met |
| Cc1cc(C)cc(NC(=O)CSc2nnc(CN3CCOCC3)n2C)c1 | Condition met |
| Cc1cccc(OCC(=O)NC2CCCc3ccccc32)c1C (stereo unspecified) | Condition not met |
